Provenance of the data: patent US12371454B2

SYSTEM UNDER TEST: Kras and SOS1 (biotin-tagged human Kras loaded with GDP, His-tagged human SOS1) (Homo sapiens, UniProt P01116, G12D)
Construct: made in house; host or cells: E. coli (stated for Kras only)
Sequence (P01116 1-188 isoform P01116-2 G12D): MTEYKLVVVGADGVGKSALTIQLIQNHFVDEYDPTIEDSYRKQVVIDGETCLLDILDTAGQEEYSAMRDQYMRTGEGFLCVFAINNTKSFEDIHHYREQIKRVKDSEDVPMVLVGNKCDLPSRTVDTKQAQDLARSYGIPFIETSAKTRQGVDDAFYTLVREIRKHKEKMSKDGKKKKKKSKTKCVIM
ASSAY PROCEDURE: Protein-protein interaction inhibition between Kras and SOS1 (KrasGl2D-SOS PPI) using AlphaScreen
Type: binding
CONDITION LABEL: AlphaScreen; biotin-tagged human Kras loaded with GDP, His-tagged human SOS1; read-out: KRAS G12D-SOS PPI IC50
Experimental: Protein-Protein Interaction Inhibition Between Kras and SOS1 (KrasGl2D-SOS PPI) Using AlphaScreen Protein-protein interaction inhibition (PPI) between Kras and SOS1 was measured by energy transfer from nickel-conjugated donor beads to streptavidin-conjugated acceptor beads using biotin-tagged human Kras expressed in E. coli and loaded with GDP after purification and His-tagged human SOS1 enzyme. […]
Positions of bridges follow the written chain, without caps; N, C: chain ends. Non-standard residues stand in square brackets, D forms with d. Residues, ends and D or L forms follow the SMILES beside them. *: point of attachment. hPhe(3-Cl-4-CF3) = N[C@@H](CCc1ccc(C(F)(F)F)c(Cl)c1)C(=O)O; NMeCha = CN[C@@H](CC1CCCCC1)C(=O)O; NMeChg = CN[C@H](C(=O)O)C1CCCCC1; NMeD = CN[C@@H](CC(=O)O)C(=O)O; NMeL = CN[C@@H](CC(C)C)C(=O)O; NMeV = CN[C@H](C(=O)O)C(C)C; NMeAbu = CC[C@H](NC)C(=O)O; NMeA = CN[C@@H](C)C(=O)O; Piperidide = C1CCN(*)CC1; Ac5c = NC1(C(=O)O)CCCC1; Sar = CNCC(=O)O
VALUE KIND: pIC50
Recall that pIC50 is obtained by taking minus log10 of the concentration measured in molar.

>>> data_value("CC[C@H](C)[C@@H]1NC(=O)[C@H](CC(C)C)N(C)C(=O)C[C@@H](C(=O)N2CCCCC2)N(C)C(=O)[C@H](C2CCCCC2)N(C)C(=O)C2(CCCC2)NC(=O)[C@@H]2CCCN2C(=O)[C@H](CCc2ccc(C(F)(F)F)c(Cl)c2)NC(=O)CN(C)C(=O)[C@H](CC)N(C)C(=O)CN(C)C(=O)CN(C)C1=O [Compound 1743] ([NMeL]I[Sar][Sar][NMeAbu][Sar][hPhe(3-Cl-4-CF3)]P[Ac5c][NMeChg][NMeD]-Piperidide; lactam N-11)")
8.89

# input for lookup
Query: So what does the record say about pIC50 for CC[C@H](C)[C@@H]1NC(=O)[C@H](C)N(C)C(=O)C[C@@H](C(=O)N2CCCCC2)N(C)C(=O)[C@H](C(C)C)N(C)C(=O)C2(CCCC2)NC(=O)[C@@H]2CCCN2C(=O)[C@H](CCc2ccc(C(F)(F)F)c(Cl)c2)NC(=O)CN(C)C(=O)[C@H](CC2CCCCC2)N(C)C(=O)[C@@H]2CCCN2C(=O)CN(C)C1=O [Compound 1121] ([NMeA]I[Sar]P[NMeCha][Sar][hPhe(3-Cl-4-CF3)]P[Ac5c][NMeV][NMeD]-Piperidide; lactam N-11) ?
Result: 8.85

----------
SYSTEM UNDER TEST: Kras and SOS1 (biotin-tagged human Kras loaded with GDP, His-tagged human SOS1) (Homo sapiens, UniProt P01116, G12D)
Construct: made in house; host or cells: E. coli (stated for Kras only)
ASSAY PROCEDURE: Protein-protein interaction inhibition between Kras and SOS1 (KrasGl2D-SOS PPI) using AlphaScreen
Format: binding
CONDITION LABEL: AlphaScreen; biotin-tagged human Kras loaded with GDP, His-tagged human SOS1; read-out: KRAS G12D-SOS PPI IC50
Positions of bridges follow the written chain, without caps; N, C: chain ends. Non-standard residues stand in square brackets, D forms with d. Residues, ends and D or L forms follow the SMILES beside them. *: point of attachment. hPhe(3-Cl-4-CF3) = N[C@@H](CCc1ccc(C(F)(F)F)c(Cl)c1)C(=O)O; NMePhe(4-CF3) = CN[C@@H](Cc1ccc(C(F)(F)F)cc1)C(=O)O; NMePhe(4-Cl) = CN[C@@H](Cc1ccc(Cl)cc1)C(=O)O; NMeGly(cPent) = CN[C@H](C(=O)O)C1CCCC1; Phe(3-Me) = Cc1cccc(C[C@H](N)C(=O)O)c1; NMeF = CN[C@@H](Cc1ccccc1)C(=O)O; NMeV = CN[C@H](C(=O)O)C(C)C; d(β3hA) = C[C@@H](N)CC(=O)O; NMeA = CN[C@@H](C)C(=O)O; Pyrrolidide = C1CCN(*)C1; dNMeA = CN[C@H](C)C(=O)O; Ac5c = NC1(C(=O)O)CCCC1; Aze = O=C(O)[C@@H]1CCN1; Sar = CNCC(=O)O
VALUE KIND: IC50
Please state the number and follow it with the unit.

>>> data_value("CC[C@H](C)[C@@H]1NC(=O)[C@H](C)N(C)C(=O)C[C@@H](C)NC(=O)[C@H](C2CCCC2)N(C)C(=O)C2(CCCC2)NC(=O)[C@@H]2CCCN2C(=O)[C@H](CCc2ccc(C(F)(F)F)c(Cl)c2)NC(=O)[C@@H](C)N(C)C(=O)[C@H](Cc2ccc(C(F)(F)F)cc2)N(C)C(=O)[C@@H]2CCN2C(=O)CN(C)C1=O [Compound 1507] (cyclo([Ac5c][NMeGly(cPent)][d(β3hA)][NMeA]I[Sar][Aze][NMePhe(4-CF3)][dNMeA][hPhe(3-Cl-4-CF3)]P))")
"24 nM"

// switching to the query compound
Query: Need IC50 of CC[C@H](C)[C@@H]1NC(=O)[C@H](C)N(C)C(=O)C[C@@H](C(=O)N2CCCC2)NC(=O)[C@H](C(C)C)N(C)C(=O)[C@H](Cc2ccccc2)N(C)C(=O)[C@H](Cc2ccccc2)NC(=O)[C@H](Cc2cccc(C)c2)NC(=O)CN(C)C(=O)[C@H](Cc2ccc(Cl)cc2)N(C)C(=O)CN(C)C(=O)CN(C)C1=O [Compound 467] ([NMeA]I[Sar][Sar][NMePhe(4-Cl)][Sar][Phe(3-Me)]F[NMeF][NMeV]D-Pyrrolidide; lactam N-11) , thanks.
Result: 200 nM

----------
Consider the following compounds and their measured IC50 readings.
SYSTEM UNDER TEST: Kras and SOS1 (biotin-tagged human Kras loaded with GDP, His-tagged human SOS1) (Homo sapiens, UniProt P01116, G12D)
Construct: made in house; host or cells: E. coli (stated for Kras only)
ASSAY PROCEDURE: Protein-protein interaction inhibition between Kras and SOS1 (KrasGl2D-SOS PPI) using AlphaScreen
Type: binding
CONDITION LABEL: AlphaScreen; biotin-tagged human Kras loaded with GDP, His-tagged human SOS1; read-out: KRAS G12D-SOS PPI IC50
Starred links: 1 amine or outer side, 2 acyl side, 3 side chain; linkers in the order of their positions; H or OH if unused. Non-standard residues stand in square brackets, D forms with d. Residues, ends and D or L forms follow the SMILES beside them. hPhe(3-Cl-4-CF3) = N[C@@H](CCc1ccc(C(F)(F)F)c(Cl)c1)C(=O)O; hPhe(3-F,4-CF3) = N[C@@H](CCc1ccc(C(F)(F)F)c(F)c1)C(=O)O; NMeNle(6-CHF2) = CN[C@@H](CCCCC(F)F)C(=O)O; NMedβ3hAla = C[C@H](CC(=O)[*:2])N(C)[*:1]; NMeCha = CN[C@@H](CC1CCCCC1)C(=O)O; NMeL = CN[C@@H](CC(C)C)C(=O)O; NMeV = CN[C@H](C(=O)O)C(C)C; d(β3hA) = C[C@@H](N)CC(=O)O; NMeA = CN[C@@H](C)C(=O)O; dNMeA = CN[C@H](C)C(=O)O; Ac5c = NC1(C(=O)O)CCCC1; Sar = CNCC(=O)O
Give the value in nM but do not write nM after it.

>>> data_value("CC[C@H](C)[C@@H]1NC(=O)[C@H](C)N(C)C(=O)C[C@@H](C)N(C)C(=O)[C@H](C(C)C)N(C)C(=O)C2(CCCC2)NC(=O)[C@@H]2CCCN2C(=O)[C@H](CCc2ccc(C(F)(F)F)c(Cl)c2)NC(=O)[C@@H](C)N(C)C(=O)[C@H](CC2CCCCC2)N(C)C(=O)[C@@H]2CCCN2C(=O)CN(C)C1=O [Compound 1784] (cyclo([Ac5c][NMeV][NMedβ3hAla][NMeA]I[Sar]P[NMeCha][dNMeA][hPhe(3-Cl-4-CF3)]P))")
11

Query: Name the reported IC50 value associated with the compound CC[C@H](C)[C@@H]1NC(=O)[C@H](CC(C)C)N(C)C(=O)C[C@@H](C)NC(=O)[C@H](CC(C)C)N(C)C(=O)C2(CCCC2)NC(=O)[C@@H]2CCCN2C(=O)[C@H](CCc2ccc(C(F)(F)F)c(F)c2)NC(=O)CN(C)C(=O)[C@H](CCCCC(F)F)N(C)C(=O)CN(C)C(=O)CN(C)C1=O [Compound 1515] (cyclo([Ac5c][NMeL][d(β3hA)][NMeL]I[Sar][Sar][NMeNle(6-CHF2)][Sar][hPhe(3-F,4-CF3)]P))
Result: 77
